Source listed as PubChem BioAssay (NCI).

experiment: NCI Yeast Anticancer Drug Screen. Data for the mlh1 rad18 strain (AID 175); conditions: S. cerevisiae mlh1 rad18 strain growth inhibition; at 50.0 µM; hits give high values
The panel holds about 79,000 compounds, 15% with a hit somewhere; the sample as a whole holds those more often.
Exercise: state measured growth inhibition for each of the compounds provided.
One number for each entry, in %.

Compound: O=C(CI)NCC(O)CNC(=O)CI
Observed Property: growth inhibition
Recorded Value: 36.5

Compound: CCCc1c(O)ccc(C)c1C
Observed Property: growth inhibition
Recorded Value: 32.4

Compound: CCOC(Nc1ccccc1[N+](=O)[O-])C(=O)c1ccccc1 (stereo not drawn)
Observed Property: growth inhibition
Recorded Value: 12.7

Compound: CCCOC(=O)C(=O)OCCC
Observed Property: growth inhibition
Recorded Value: -9.2

Compound: CSc1nc(-c2ccccc2)c(C(=O)NC(C)CN2CCCCC2)s1 (stereo not drawn)
Observed Property: growth inhibition
Recorded Value: 11.1

// for each compound in input: emit growth inhibition
1. CCOC(=O)CCC(C)(C#N)c1ccccc1 (stereo not drawn)
2. COc1cccc(CN(CCc2cccc(OC)c2OC)C(=O)CN2CCOCC2)c1O
3. CC1CCC(=O)C(C(=O)CC2CC(=O)NC(=O)C2)C1 (stereo not drawn)
4. CCCn1cnc2c(SCC(=O)O)nc(N)nc21
5. CCc1ccc[n+](CCc2c[nH]c3ccccc23)c1

# output
1: -0.05; 2: -23.1; 3: 4.55; 4: -8.9; 5: -10.5

// for each compound in input: emit growth inhibition
1. COc1cccc(NC(=O)CC(=O)N2N=C(N(CCC#N)c3ccc(Cl)cc3)CC2c2ccccc2)c1 (stereo not drawn)
2. CCc1c(Sc2ccccn2)n(COCc2ccccc2)c(=O)[nH]c1=O
3. Cc1cc(=O)c(C#N)c(C)o1

# output
1: -0.75; 2: -16.1; 3: 10
